- procedureDetails: Half life in rat liver microsomes
- Format: ADME
observable: half-life (min)

[[record]]
structuresmiles = "CC(C)NC(=O)N1CC[C@H](NC2=Nc3cc(F)ccc3N(CC(F)F)c3ccc(Cl)cc32)C1"
observable = "half-life"
unitslabel = "min"
obsvalue = 3.5


###

- procedureDetails: Aqueous solubility of the compound at pH 6.8
- Assay type: physicochemical
- testContext: buffer
solubility reference
observable: solubility (µM)

[[record]]
structuresmiles = "CC(C)NC(=O)N1CC[C@H](NC2=Nc3cc(F)ccc3N(CC(F)F)c3ccc(Cl)cc32)C1"
unitslabel = "µM"
valuecomparator = "="
obsvalue = 55

[[record]]
structuresmiles = "CCN1c2ccc(F)cc2N=C(N[C@H]2CCN(C(=O)NC(C)(C)C)C2)c2cc(Cl)ccc21"
unitslabel = "µM"
valuecomparator = "<"
obsvalue = 4


src = ChEMBL document CHEMBL3608218
